Target: HLA-DR DRB4*01:01 (Homo sapiens, UniProt P01903+P13762, G164S)
Test: biochemical
Assay type: binding
Conditions: read-out: Binding capacity/IC50 (nM) DRB4*01:01
Ends that are not written are not given here.
Recorded measurements of log10(IC50), one per entry
Use the decimal logarithm of IC50 (nM).

Consider the following illustrative entries.
> print(dat)
                                  substance  measured
1  NYPIVQNLQGQMVHQAISPR-NH2 [p17(131-132)/p24(1-18)]      2.12
2       LNKIVRMYSPVSILDI-NH2 [p24(138-153)]      1.40
3         YAKMRSAHTNDVKQL-NH2 [RT(354-368)]      3.16

Query: Please list log10(IC50) recorded for the substance IRYPLTFGWCFKLVPVDPREVEEA-NH2 [nef(133-156)]
Reply: 3.21

Query: Please list log10(IC50) recorded for the substance SEELRSLYNTVATLYCVHQ-NH2 [p17(72-90)]
Reply: 3.04

Query: Please list log10(IC50) recorded for the substance VVIQDNSDIKVVPRRKAKII-NH2 [integrase(249-268)]
Reply: 2.93

Query: Please list log10(IC50) recorded for the substance EAVRHFPRPWLHGL-NH2 [vpr(29-42)]
Reply: 2.44

----------
Biological target: HLA-DP DPA1*02:01/DPB1*05:01 (Homo sapiens, UniProt P04440+P20036, A65V/A84E/F191V/F64L/G113D/G114E/K142R/L158P/M116V/M62Q/P115A/Q81R/R125K/T114A/T199I/T259P/V234M)
Test: biochemical
Assay type: binding
Settings: read-out: Binding capacity/IC50 (nM) DPA1*02:01 DPB1*05:01
Ends that are not written are not given here.
Measured attribute: IC50 (nM)
Field format: number, assumed nM, no unit text.

Consider the following illustrative entries.
> print(dat)
                              substance  measured
1   DEELLKAVRIIKILYQSNP-NH2 [rev(9-27)]       370
2  VGSLQYLALTALITPKK-NH2 [vif(142-158)]        20

Then this substance:
Query: Please list IC50 recorded for the substance EAVRHFPRPWLHGL-NH2 [vpr(29-42)]
Reply: 8450

----------
Target: HLA-DP DPA1*01:03/DPB1*02:01 (Homo sapiens, UniProt P04440+P20036, A65V/A84D/A85E/K98E)
Experiment: biochemical
Type: binding
Details: read-out: Binding capacity/IC50 (nM) DPA1*01:03 DPB1*02:01
Rule for this label: Y means IC50 is less than 30 nM; N means IC50 is at least 30 nM.

Structure notation	Assigned label
CC[C@H](C)[C@H](NC(=O)CNC(=O)[C@H](CCCCN)NC(=O)[C@H](Cc1c[nH]cn1)NC(=O)[C@H](C)NC(=O)[C@@H]1CCCN1C(=O)[C@@H](NC(=O)[C@H](Cc1c[nH]c2ccccc12)NC(=O)[C@H](CO)NC(=O)[C@H](CC(C)C)NC(=O)[C@H](Cc1ccc(O)cc1)NC(=O)[C@@H](NC(=O)[C@H](CCCCN)NC(=O)[C@H](CCC(=O)O)NC(=O)[C@@H](N)CCCCN)C(C)C)C(C)C)C(=O)NCC(=O)NCC(=O)N[C@@H](CC(N)=O)C(=O)N[C@@H](CCC(=O)O)C(N)=O	N

Query: Hi there! Is IC50 for CC[C@H](C)[C@H](NC(=O)[C@H](Cc1ccc(O)cc1)NC(=O)CNC(=O)[C@H](CO)NC(=O)[C@H](C)NC(=O)[C@@H](NC(=O)[C@H](Cc1c[nH]cn1)NC(=O)[C@@H](NC(=O)[C@H](C)NC(=O)[C@@H](NC(=O)[C@H](CC(C)C)NC(=O)[C@@H](NC(=O)[C@@H](NC(=O)[C@H](CCCCN)NC(=O)CNC(=O)[C@@H](N)CCC(=O)O)[C@@H](C)CC)[C@@H](C)CC)C(C)C)C(C)C)C(C)C)C(=O)N[C@@H](CCC(=O)O)C(N)=O below 30 nM, do you know?
Reply: Y

Query: Hi there! Is IC50 for CSCC[C@H](NC(=O)[C@H](CCCCN)NC(=O)[C@H](C)NC(=O)[C@H](Cc1ccc(O)cc1)NC(=O)[C@H](CCCCN)NC(=O)CNC(=O)[C@@H](NC(=O)[C@H](CCCCN)NC(=O)[C@H](CC(C)C)NC(=O)[C@H](CC(N)=O)NC(=O)[C@H](CCCCN)NC(=O)[C@H](Cc1ccccc1)NC(=O)[C@@H]1CCCN1C(=O)[C@H](CCC(=O)O)NC(=O)[C@@H](N)CCC(N)=O)[C@@H](C)O)C(N)=O below 30 nM, do you know?
Reply: N

Query: Hi there! Is IC50 for CC[C@H](C)[C@H](NC(=O)[C@@H](NC(=O)[C@H](CCCCN)NC(=O)[C@@H](NC(=O)[C@@H]1CCCN1C(=O)[C@H](Cc1c[nH]c2ccccc12)NC(=O)[C@H](CCCNC(=N)N)NC(=O)CNC(=O)[C@H](C)NC(=O)[C@H](CC(C)C)NC(=O)[C@H](CCCCN)NC(=O)[C@H](CC(C)C)NC(=O)[C@@H](NC(=O)[C@H](Cc1ccccc1)NC(=O)[C@H](Cc1ccc(O)cc1)NC(=O)[C@H](C)NC(=O)[C@@H](NC(=O)[C@@H](N)CCC(=O)O)[C@@H](C)O)[C@@H](C)CC)C(C)C)C(C)C)C(N)=O below 30 nM, do you know?
Reply: N

----------
Target: HLA-DR DRB1*11:01 (Homo sapiens, UniProt P01903+P01911, A100R/A169T/A87E/I96F/K41T/L162R/M171V/P40S/Q125H/Q178H/Q39Y/Q99D/R42S/S66Y/T262R/V115G/W38E)
Experiment: biochemical
Type: binding
Settings: read-out: Binding capacity/IC50 (nM) DRB1*11:01
Ends that are not written are not given here.
Recorded measurements of IC50, one per entry
Field format: number, assumed nM, no unit text.

Query: Please list IC50 recorded for the substance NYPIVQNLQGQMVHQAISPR-NH2 [p17(131-132)/p24(1-18)]
Reply: 1130

Query: Please list IC50 recorded for the substance LNKIVRMYSPVSILDI-NH2 [p24(138-153)]
Reply: 79

----------
Molecular target: HLA-DP DPA1*01:03/DPB1*03:01 (Homo sapiens, UniProt P04440+P20036, A65V/A84D/A85E/E86D/F38Y/G113D/G114E/G40L/I94L/L37V/M105V/M116V/P115A/R125K/T199I)
Assay: biochemical
Format: binding
Ends that are not written are not given here.
Measured attribute: IC50

Query: Please list IC50 recorded for the substance EAVRHFPRPWLHGL-NH2 [vpr(29-42)]
Reply: 11 nM

Query: Please list IC50 recorded for the substance SEELRSLYNTVATLYCVHQ-NH2 [p17(72-90)]
Reply: 1740 nM

Query: Please list IC50 recorded for the substance YAKMRSAHTNDVKQL-NH2 [RT(354-368)]
Reply: 11900 nM

Query: Please list IC50 recorded for the substance VGSLQYLALTALITPKK-NH2 [vif(142-158)]
Reply: 74 nM

----------
Target: HLA-DP DPA1*03:01/DPB1*04:02 (Homo sapiens, UniProt P04440+P20036, A42M/A65V/A84D/A85E/L207M/L97S)
Experiment: biochemical
Measured attribute: IC50 (nM)
Field format: number, assumed nM, no unit text.

Query: Please list IC50 recorded for the compound CC[C@H](C)[C@H](NC(=O)[C@@H]1CCCN1C(=O)[C@H](CCC(=O)O)NC(=O)[C@@H](N)CCCCN)C(=O)N[C@H](C(=O)NCC(=O)N[C@@H](C)C(=O)N[C@@H](CCC(=O)O)C(=O)N[C@H](C(=O)N[C@@H](Cc1ccccc1)C(=O)N[C@@H](Cc1ccc(O)cc1)C(=O)N[C@H](C(=O)N[C@@H](CC(=O)O)C(=O)NCC(=O)N[C@@H](C)C(N)=O)C(C)C)[C@@H](C)O)C(C)C
Reply: 132

----------
Target: HLA-DP DPA1*02:01/DPB1*14:01 (Homo sapiens, UniProt P04440+P20036, A65V/A84D/A85E/E86D/F191V/F38H/G113D/G114E/G40L/I94L/K142R/L158P/L37V/M105V/M116V/M62Q/P115A/Q81R/R125K/T114A/T199I/T259P)
Sequence (P20036 29-260 A42M/M62Q/Q81R/T114A/K142R/L158P/F191V/T259P): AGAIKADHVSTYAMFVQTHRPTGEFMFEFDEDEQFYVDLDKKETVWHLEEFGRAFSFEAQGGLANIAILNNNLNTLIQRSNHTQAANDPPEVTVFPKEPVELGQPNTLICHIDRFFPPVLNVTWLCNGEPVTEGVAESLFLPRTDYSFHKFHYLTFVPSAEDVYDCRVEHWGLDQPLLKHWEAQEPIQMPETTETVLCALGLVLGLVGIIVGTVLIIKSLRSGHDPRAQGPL
Sequence (P04440 30-258 L37V/F38H/G40L/A65V/A84D/A85E/E86D/I94L/M105V/G113D/G114E/P115A/M116V/R125K/T199I/R223Q): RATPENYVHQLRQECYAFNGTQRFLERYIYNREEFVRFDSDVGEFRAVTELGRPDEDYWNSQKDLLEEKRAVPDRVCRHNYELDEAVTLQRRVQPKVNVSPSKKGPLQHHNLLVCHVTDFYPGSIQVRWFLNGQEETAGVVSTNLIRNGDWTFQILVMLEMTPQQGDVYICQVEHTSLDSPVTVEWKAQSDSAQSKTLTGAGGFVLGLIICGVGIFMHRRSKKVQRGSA
Assay: biochemical
Assay type: binding
Conditions: read-out: Binding capacity/IC50 (nM) DPA1*02:01 DPB1*14:01
Measured attribute: IC50 (nM)
Field format: number, assumed nM, no unit text.

Query: Please list IC50 recorded for the compound CC[C@H](C)[C@H](NC(=O)[C@H](CCSC)NC(=O)[C@@H](NC(=O)[C@H](CCC(N)=O)NC(=O)[C@H](Cc1c[nH]c2ccccc12)NC(=O)[C@H](CCCNC(=N)N)NC(=O)[C@H](CC(N)=O)NC(=O)[C@H](CCC(=O)O)NC(=O)[C@@H](N)CCSC)C(C)C)C(=O)N[C@H](C(=O)N[C@@H](Cc1c[nH]c2ccccc12)C(=O)N[C@@H](CCC(N)=O)C(=O)N[C@H](C(=O)N[C@@H](CC(=O)O)C(=O)N[C@@H](CCCNC(=N)N)C(N)=O)C(C)C)C(C)C
Reply: 7240
